Biological target: T1, human PAR-2 (human, UniProt P55085 26-397)
T1 sequence: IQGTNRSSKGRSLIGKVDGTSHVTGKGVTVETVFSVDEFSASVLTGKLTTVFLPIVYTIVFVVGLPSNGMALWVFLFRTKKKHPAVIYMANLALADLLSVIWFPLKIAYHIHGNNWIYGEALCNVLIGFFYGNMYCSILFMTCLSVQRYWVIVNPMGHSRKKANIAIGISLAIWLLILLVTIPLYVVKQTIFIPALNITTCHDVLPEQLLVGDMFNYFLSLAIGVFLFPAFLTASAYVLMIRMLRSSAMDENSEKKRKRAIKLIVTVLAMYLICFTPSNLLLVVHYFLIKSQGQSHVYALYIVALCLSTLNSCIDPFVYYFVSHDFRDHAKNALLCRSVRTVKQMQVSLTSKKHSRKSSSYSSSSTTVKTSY
Experiment: cell-based or functional assay
OUTCOME MEASURE: IL-6 release in A549 cells IC50 (nM)

>>> val("P24E1102 (antibody, human IgG4 S228P, kappa, V domains shown, human IgG4 S228P K447del / kappa; also called Anti-PAR-2 (P24E1102); TEV-56192 P24E1102) VH: QVQLVQSGAEVKKPGSSVKVSCKASGFSLSSYAISWVRQAPGQGLEWMGVIWGNQNVYYAQKFQGRVTITADESTSTAYMELSSLRSEDTAVYYCARWKGYKDYPFDYWGQGTLVTVSS VL: EIVLTQSPATLSLSPGERATLSCRASQNVYKWLDWYQQKPGQAPRLLIYNANTRATGIPARFSGSGSGRDFTLTISSLEPEDFAVYYCQQHHSGWTFGGGTKVEIKR")
5
>>> val("P24E976 (antibody, human IgG4 S228P, kappa, V domains shown) VH: QVQLVQSGAEVKKPGSSVKVSCKASGFSLSSYAISWVRQAPGQGLEWMGVIWGNQNVYYAQKFQGRVTITADESTSTAYMELSSLRSEDTAVYYCARWKGYKDYPFDYWGQGTLVTVSS VL: EIVLTQSPATLSLSPGERATLSCRASQNVYKWLDWYQQKPGQAPRLLIYNAYSRATGIPARFSGSGSGRDFTLTISSLEPEDFAVYYCQQHHSGWTFGGGTKVEIKR")
5.63
>>> val("P24E1099 (antibody, human IgG4 S228P, kappa, V domains shown) VH: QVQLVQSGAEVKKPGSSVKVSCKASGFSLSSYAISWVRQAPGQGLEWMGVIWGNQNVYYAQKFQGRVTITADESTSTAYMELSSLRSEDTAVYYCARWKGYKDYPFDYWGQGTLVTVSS VL: EIVLTQSPATLSLSPGERATLSCRASQNVYKWLDWYQQKPGQAPRLLIYNANSRATGIPARFSGSGSGRDFTLTISSLEPEDFAVYYCQQHHSGWTFGGGTKVEIKR")
6.74
>>> val("P24E1103 (antibody, human IgG4 S228P, kappa, V domains shown) VH: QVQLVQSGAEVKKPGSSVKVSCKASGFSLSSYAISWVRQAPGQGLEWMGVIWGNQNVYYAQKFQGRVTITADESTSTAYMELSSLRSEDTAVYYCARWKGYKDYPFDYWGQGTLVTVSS VL: EIVLTQSPATLSLSPGERATLSCRASQNVYKWLDWYQQKPGQAPRLLIYNANNRATGIPARFSGSGSGRDFTLTISSLEPEDFAVYYCQQHHSGWTFGGGTKVEIKR")
7.18
